# Test system: recombinant NL-Rluc virus
# Procedure details: Inhibition of HIV replication (NL-RLuc luciferase reporter virus, MT-2 cells)
# Format: cell-based
# Run conditions: Human immunodeficiency virus 1, MT2, 120 h, read-out: EC50 μM
Reported endpoint: EC50
Include the unit right after the number.

Solved entries (count: 5):
{"Compound": "Cc1nc2cc(C(=O)NCCC3CCN(Cc4ccccc4)CC3)nn2c(-c2cc(F)c3c(c2C)CCCO3)c1[C@H](OC(C)(C)C)C(=O)O", "EC50": "0.668 µM"}
{"Compound": "Cc1nc2cc(C(=O)NCCC(C)(C)C)nn2c(-c2cc(F)c3c(c2C)CCCO3)c1[C@H](OC(C)(C)C)C(=O)O", "EC50": "0.013 µM"}
{"Compound": "Cc1nc2cc(C(=O)N(C)CCc3ccccc3)nn2c(-c2cc(F)c3c(c2C)CCCO3)c1[C@H](OC(C)(C)C)C(=O)O", "EC50": "0.077 µM"}
{"Compound": "Cc1cc(CNC(=O)c2cc3nc(C)c(C(OC(C)(C)C)C(=O)O)c(-c4cc(F)c5c(c4C)CCCO5)n3n2)ccc1F (stereo in doubt)", "EC50": "0.032 µM"}
{"Compound": "Cc1nc2cc(C(=O)NCc3ccco3)nn2c(-c2cc(F)c3c(c2C)CCCO3)c1[C@H](OC(C)(C)C)C(=O)O", "EC50": "0.167 µM"}

Consider now this further compound.
EC50 for `Cc1nc2cc(C(=O)NCc3ccc(Cl)cc3Cl)nn2c(-c2cc(F)c3c(c2C)CCCO3)c1[C@H](OC(C)(C)C)C(=O)O` is 0.013 µM
